systemUnderTest: sodium-proton exchanger of subtype 3 (NHE3) (Homo sapiens, UniProt P48764)
Construct: expressed in transfected cells
Sequence (P48764 26-834): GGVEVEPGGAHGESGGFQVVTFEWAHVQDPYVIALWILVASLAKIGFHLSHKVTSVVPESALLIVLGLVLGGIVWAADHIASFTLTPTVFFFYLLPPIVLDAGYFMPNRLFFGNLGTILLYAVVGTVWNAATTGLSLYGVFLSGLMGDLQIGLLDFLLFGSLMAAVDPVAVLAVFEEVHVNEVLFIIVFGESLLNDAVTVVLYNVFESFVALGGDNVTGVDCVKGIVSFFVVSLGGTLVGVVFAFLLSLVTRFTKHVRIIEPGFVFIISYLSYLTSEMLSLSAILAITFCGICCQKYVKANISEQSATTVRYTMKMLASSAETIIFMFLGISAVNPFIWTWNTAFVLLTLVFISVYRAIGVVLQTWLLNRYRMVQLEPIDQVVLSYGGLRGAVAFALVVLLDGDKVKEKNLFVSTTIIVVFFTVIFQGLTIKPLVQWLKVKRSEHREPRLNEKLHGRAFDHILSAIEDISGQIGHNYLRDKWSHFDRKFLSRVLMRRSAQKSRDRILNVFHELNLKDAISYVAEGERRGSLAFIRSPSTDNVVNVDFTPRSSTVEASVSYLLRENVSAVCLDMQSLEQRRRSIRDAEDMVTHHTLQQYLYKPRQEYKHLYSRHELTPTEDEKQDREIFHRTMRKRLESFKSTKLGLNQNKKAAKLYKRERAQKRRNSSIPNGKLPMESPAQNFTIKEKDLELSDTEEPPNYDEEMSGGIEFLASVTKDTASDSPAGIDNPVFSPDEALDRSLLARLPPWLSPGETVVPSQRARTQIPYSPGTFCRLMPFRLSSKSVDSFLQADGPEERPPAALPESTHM
protocol: Recovery of intracellular pH (pHi) after acidification in LAP1 cells stably expressing NHE3 (BCECF fluorescence, FLIPR)
Type: cell-based
conditionDescription: LAP1 cells stably expressing NHE3; pH recovery after acidification; range 1 is % inhibition at 10 μM; read-out: Activity range (inhibitory effect on NHE3)
pIC50: −log10 of the molar value.
I'd be grateful if you could share measured pIC50 for these entries.

Before answering, review these 6 worked examples.
{"compound": "Brc1ccc(O[C@@H]2c3ccccc3C[C@H]2N2C[C@H]3CNC[C@H]3C2)c(-c2cc[nH]n2)c1 (racemic)", "pIC50": "5.00 to 6.00"}
{"compound": "CS(=O)(=O)c1ccc(O[C@H]2c3cccc(F)c3C[C@@H]2N2CCCC2)cc1 (racemic)", "pIC50": "5.00 to 6.00"}
{"compound": "Cc1nc2cc(O[C@@H]3c4ccccc4C[C@H]3N3CCC[C@@H](N)C3)ccc2s1 (racemic)", "pIC50": "> 6.00"}
{"compound": "NS(=O)(=O)c1ccc(O[C@H]2c3cc(Cl)cc(Cl)c3C[C@@H]2N2CCOCC2)c(Cl)c1Cl (racemic)", "pIC50": "5.00 to 6.00"}
{"compound": "CCOc1cccc(O[C@@H]2c3ccccc3C[C@H]2N2CCC(CN)C2)c1 (mixture of isomers)", "pIC50": "5.00 to 6.00"}
{"compound": "O=C1OCc2cc(O[C@H]3c4ccccc4C[C@@H]3N3CCCC3)ccc21 (racemic)", "pIC50": "5.00 to 6.00"}

Items follow; give pIC50 for each.
1. CS(=O)(=O)c1ccc(O[C@H]2c3cc(Cl)cc(F)c3C[C@@H]2NC2CCCC2)cc1
2. Cc1nnc(C)n1-c1ccc(O[C@H]2c3cc(Cl)cc(Cl)c3C[C@@H]2N2CCCC2)c(F)c1
3. Clc1cnccc1O[C@H]1c2ccccc2C[C@@H]1N1CCCC1 (racemic)
4. NS(=O)(=O)c1ccc(O[C@H]2c3cc(Cl)cc(F)c3C[C@@H]2NC2CCCC2)c(F)c1
5. Cc1nc2cc(O[C@H]3c4cc(Cl)cc(Cl)c4C[C@@H]3N3CCNCC3)ccc2s1 (racemic)
6. N[C@H]1CCCN([C@H]2CCc3ccccc3[C@@H]2Oc2ccc(F)c3cccnc23)C1 (racemic)
7. CS(=O)(=O)c1ccc(O[C@H]2c3cc(Cl)ccc3C[C@@H]2N2CCNCC2)cc1 (racemic)

Response:
1: 5.00 to 6.00; 2: > 6.00; 3: 5.00 to 6.00; 4: 5.00 to 6.00; 5: 5.00 to 6.00; 6: 5.00 to 6.00; 7: > 6.00

Respectfully, I request pIC50 for each entry included below.
1. CN1CCC2CN([C@H]3Cc4c(Cl)cc(Cl)cc4[C@@H]3Oc3ccc(S(C)(=O)=O)cc3)CC21 (single isomer, unassigned) [Example 582]
2. Cc1nnc(C(C)C)n1-c1ccc(O[C@H]2c3cc(Cl)cc(Cl)c3C[C@@H]2N2CC[C@@H](O)C2)cc1
3. NC(=O)Nc1cccc(O[C@@H]2c3ccccc3C[C@H]2N2CCC(N)C2)c1 (mixture of isomers)
4. NCC1CCN([C@@H]2Cc3ccccc3[C@H]2Oc2cccc(NC(N)=O)c2)C1 (mixture of isomers)

Response:
["5.00 to 6.00", "> 6.00", "5.00 to 6.00", "5.00 to 6.00"]

For every record below, what is its pIC50?
1. CS(=O)(=O)c1ccc(O[C@H]2c3ccccc3C[C@@H]2N2CCC[C@@H](NCCC(F)(F)F)C2)cc1
2. CS(=O)(=O)c1ccc(O[C@H]2c3ccccc3C[C@@H]2N2CCNCC2)cc1 (racemic)
3. CS(=O)(=O)c1ccc(O[C@H]2c3cc(Cl)cc(F)c3C[C@@H]2N2CCNCC2)cc1 (racemic)

Response:
["> 6.00", "5.00 to 6.00", "> 6.00"]

Query: Name the reported pIC50 value associated with the compound CN1CCN(c2cccc(O[C@H]3c4cc(Cl)cc(Cl)c4C[C@@H]3N3CCNCC3)c2)C1=O (racemic)
Response: > 6.00

Reference source: patent US8822449B2
